Data provenance is patent US20250011413A1.

- TGT: T1, Human PF4 (CXCL4), biotinylated, without heparin (human, UniProt P02776 32-101, biotinylated with EZ-link-Sulfo-NHS-LC-Biotin (sites not given))
- T1 construct: Immobilised on streptavidin biosensors for BLI; also called PF4 alone; platelet factor 4
- T1 sequence: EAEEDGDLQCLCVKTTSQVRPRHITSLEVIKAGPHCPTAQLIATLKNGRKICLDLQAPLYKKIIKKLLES
- TEST NAME: BLI (Octet), biotinylated PF4 without heparin on streptavidin sensors, scFv 1 µg/mL
- Experimental: The Octet-QK Red 96 (FortéBio, Menlo Park, CA) instrumentation was used to conduct all BLI experiments. A 96-well microtiter plate (black, flat-bottom) was used to hold 200 μL per well of either sample or buffer. […] The following negative controls included in these kinetic experiments were also measured: 200 μL of buffer to replace both the antigen and scFv and 200 μL buffer replacing scFv only. […]
RECORDED METRIC: average binding response (wavelength shift)
State the value with its unit after it.

Examples with their reported average binding response (wavelength shift) follow.
INSERT INTO assay_data (binder, measured_value) VALUES
  ('Mutant E scFv, scFv(Y156H, D180G, Q233P) (scFv, VL-linker-VH; histidine-tagged, from E. coli BL21; also called Mut E; not shown: histidine tag from the pADL-22c vector) scFv: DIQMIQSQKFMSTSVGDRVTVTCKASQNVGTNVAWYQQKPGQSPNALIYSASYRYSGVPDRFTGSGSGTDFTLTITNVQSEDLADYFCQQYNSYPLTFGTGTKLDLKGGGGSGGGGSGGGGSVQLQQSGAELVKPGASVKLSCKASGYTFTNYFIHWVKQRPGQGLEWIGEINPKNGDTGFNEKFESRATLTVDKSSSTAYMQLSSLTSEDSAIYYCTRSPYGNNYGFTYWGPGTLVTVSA', '0.0986 nm'),
  ('Mutant B scFv, scFv(R18K, N152K, D180N) (scFv, VL-linker-VH; histidine-tagged, from E. coli BL21; also called Mut B; not shown: histidine tag from the pADL-22c vector) scFv: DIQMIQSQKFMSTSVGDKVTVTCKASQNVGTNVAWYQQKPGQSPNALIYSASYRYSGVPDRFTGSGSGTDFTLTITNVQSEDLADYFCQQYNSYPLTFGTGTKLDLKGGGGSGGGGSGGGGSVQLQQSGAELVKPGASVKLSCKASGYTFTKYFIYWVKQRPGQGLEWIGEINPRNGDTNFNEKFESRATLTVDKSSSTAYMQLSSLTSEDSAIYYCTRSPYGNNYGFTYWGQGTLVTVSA', '0.267 nm'),
  ('Wildtype scFv (KKO-derived single chain variable fragment) (scFv, VL-(G4S)3 linker-VH; expressed in E. coli BL21 from pADL-22c, purified on Ni-NTA as histidine-tagged scFv, about 28 kDa; also called WT; KKO-scFv; not shown: histidine tag from the pADL-22c vector) scFv: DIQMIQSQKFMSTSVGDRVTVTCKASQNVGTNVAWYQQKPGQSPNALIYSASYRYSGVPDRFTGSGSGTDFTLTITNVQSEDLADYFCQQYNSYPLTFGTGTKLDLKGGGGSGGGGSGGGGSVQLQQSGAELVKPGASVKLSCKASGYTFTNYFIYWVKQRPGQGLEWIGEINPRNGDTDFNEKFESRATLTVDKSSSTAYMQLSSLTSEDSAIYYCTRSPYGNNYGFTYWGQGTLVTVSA', '0.0386 nm'),
  ('Mutant C scFv, scFv(S50N, Y53H) (scFv, VL-linker-VH; histidine-tagged, from E. coli BL21; also called Mut C; not shown: histidine tag from the pADL-22c vector) scFv: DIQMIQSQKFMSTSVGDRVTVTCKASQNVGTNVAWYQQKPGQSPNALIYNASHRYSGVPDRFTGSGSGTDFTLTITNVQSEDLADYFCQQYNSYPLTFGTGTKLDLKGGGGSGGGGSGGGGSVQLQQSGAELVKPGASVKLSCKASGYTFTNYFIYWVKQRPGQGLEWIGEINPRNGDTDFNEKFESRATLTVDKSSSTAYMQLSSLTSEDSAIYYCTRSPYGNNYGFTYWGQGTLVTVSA', '0.0399 nm');

Req: What average binding response (wavelength shift) value was documented for this binder, Mutant D scFv, scFv(Y156H) (scFv, VL-linker-VH; histidine-tagged, from E. coli BL21; also called Mut D; not shown: histidine tag from the pADL-22c vector) scFv: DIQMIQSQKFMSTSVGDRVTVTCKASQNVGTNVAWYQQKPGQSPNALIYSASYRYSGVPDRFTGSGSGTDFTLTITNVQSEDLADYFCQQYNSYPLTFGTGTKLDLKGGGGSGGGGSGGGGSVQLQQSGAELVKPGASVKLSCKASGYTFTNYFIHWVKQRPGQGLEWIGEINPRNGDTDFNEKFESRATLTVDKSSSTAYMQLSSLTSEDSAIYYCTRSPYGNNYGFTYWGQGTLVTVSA ?
Resp: 0.145 nm

Req: Item: Mutant F scFv, scFv(E183V, E186K, G223R) (scFv, VL-linker-VH; histidine-tagged, from E. coli BL21; also called Mut F; not shown: histidine tag from the pADL-22c vector) scFv: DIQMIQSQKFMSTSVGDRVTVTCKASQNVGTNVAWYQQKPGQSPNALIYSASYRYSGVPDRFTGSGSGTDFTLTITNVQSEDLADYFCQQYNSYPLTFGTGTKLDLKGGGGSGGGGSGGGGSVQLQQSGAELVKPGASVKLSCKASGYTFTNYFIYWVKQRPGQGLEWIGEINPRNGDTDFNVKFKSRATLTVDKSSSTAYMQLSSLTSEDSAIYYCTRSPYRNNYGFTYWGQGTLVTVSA
Resp: 0.211 nm
